Where do the numbers come from? From PubChem BioAssay (EPA / NIEHS).

Read-out: Interleukin 6 (IL6), IL6 (gene 3569)
Test: BSK_BT_xIL6: BioMAP Diversity Plus: BT Assay for Interleukin 6 (IL6) Biomarker Activity (AID 2284228)
Conditions: primary human B cells with PBMC
Calls of active or inactive are those of the source. How the source made its calls: active means hit-call score of the fitted dose curve at least 0.9, where 1 is the maximum; inactive means score below 0.9.
Return exactly one item of active, inactive

Dear all, I need the recorded test outcome for C=C(C)C(=O)OCCC(F)(F)C(F)(F)C(F)(F)C(F)(F)C(F)(F)C(F)(F)C(F)(F)C(F)(F)F , thank you.
inactive

Dear all, I need the recorded test outcome for CCOC(=O)C=Cc1ccccc1 , thank you.
inactive

Dear all, I need the recorded test outcome for c1ccc(Sc2ccccc2)cc1 , thank you.
inactive

Dear all, I need the recorded test outcome for OCCN1CCOCC1 , thank you.
inactive

Dear all, I need the recorded test outcome for CCC(=O)OCC=Cc1ccccc1 , thank you.
inactive

Dear all, I need the recorded test outcome for CC(C)Cc1ccc(C(C)C(=O)O)cc1 (stereo not given) , thank you.
inactive

Dear all, I need the recorded test outcome for CC(=O)OCC=C(C)CCC=C(C)CCC=C(C)C , thank you.
active

Dear all, I need the recorded test outcome for COc1ccccc1NC(=O)CC(C)=O , thank you.
inactive

Dear all, I need the recorded test outcome for O=S1(=O)CC(Cl)(Cl)C(Cl)(Cl)C1 , thank you.
active

Dear all, I need the recorded test outcome for O=C(O)C(F)(F)C(F)(F)C(F)(F)C(F)(F)C(F)(F)C(F)(F)C(F)(F)C(F)F , thank you.
inactive

----------
Assay: ATG_FoxO_CIS: Attagene CIS-FACTORIAL HepG2 Assay for human Forkhead box O (FoxO) (AID 2282943)
Details: HepG2 Attagene cis-reporter, FoxO element, mRNA; actives raise or lower the signal
Calls of active or inactive are those of the source. The calls were made as follows: active = hit-call score of the fitted dose curve at least 0.9, where 1 is the maximum; inactive = score below 0.9.
Return exactly one item of active, inactive

Dear all, I need the recorded test outcome for C=CC(C)(CCC=C(C)C)OC(=O)CC (configuration not stated) , thank you.
inactive

Dear all, I need the recorded test outcome for c1ccc(OCCOc2ccccc2)cc1 , thank you.
inactive

Dear all, I need the recorded test outcome for CC(C)C(=O)c1ccccc1 , thank you.
inactive

Dear all, I need the recorded test outcome for C=CCOC(=O)/C=C\C(=O)OCC=C , thank you.
active

Dear all, I need the recorded test outcome for CC(=O)CCC(=O)O , thank you.
inactive

Dear all, I need the recorded test outcome for CC/C=C\CCOC(C)OCC (configuration not stated) , thank you.
inactive

Dear all, I need the recorded test outcome for Cc1ccncc1 , thank you.
inactive

Dear all, I need the recorded test outcome for CC1=CC[C@@H]2C[C@H]1C2(C)C , thank you.
inactive

Dear all, I need the recorded test outcome for CCCCCCCCCCCCOC(C)=O , thank you.
inactive

Dear all, I need the recorded test outcome for OC[C@H]1O[C@@H](O[C@H]2[C@H](O)[C@@H](O)[C@H](O)O[C@@H]2CO)[C@H](O)[C@@H](O)[C@H]1O , thank you.
inactive

Dear all, I need the recorded test outcome for COc1ccc(C(C)=O)cc1 , thank you.
inactive

Dear all, I need the recorded test outcome for CC(CO)(CO)[N+](=O)[O-] , thank you.
inactive

Dear all, I need the recorded test outcome for CCC(C)COC(=O)CC(C)C (configuration not stated) , thank you.
inactive

Dear all, I need the recorded test outcome for COc1ccccc1O , thank you.
inactive

Dear all, I need the recorded test outcome for C=C(C)C(N)=O , thank you.
inactive

Dear all, I need the recorded test outcome for NC(=O)NC(N)=O , thank you.
inactive

Dear all, I need the recorded test outcome for C=C(C)C(=O)OCCN(C)C , thank you.
inactive

Dear all, I need the recorded test outcome for Cc1cccc(O)c1 , thank you.
inactive

Dear all, I need the recorded test outcome for CC1(C)CC(=O)CC(C)(C)N1 , thank you.
inactive

Dear all, I need the recorded test outcome for O=C1CCC(=O)N1 , thank you.
inactive

Dear all, I need the recorded test outcome for O=c1cc[nH]cc1 , thank you.
inactive

Dear all, I need the recorded test outcome for C=CCOCC(O)CO (configuration not stated) , thank you.
inactive

Dear all, I need the recorded test outcome for CC(C)=CCCC(C)=CC(=O)O , thank you.
inactive

Dear all, I need the recorded test outcome for Nc1cc([N+](=O)[O-])ccc1C(=O)O , thank you.
inactive

Dear all, I need the recorded test outcome for CCCCCCCCCCO[C@@H]1O[C@H](CO)[C@@H](O)[C@H](O)[C@H]1O , thank you.
inactive

Dear all, I need the recorded test outcome for C=C(C)C(=O)OCCC(C)OC(=O)C(=C)C (configuration not stated) , thank you.
inactive

Dear all, I need the recorded test outcome for CCC(C)(C)C1CCC(OC)CC1 (configuration not stated) , thank you.
inactive

Dear all, I need the recorded test outcome for CC1=CCC(C(C)(C)O)CC1 (configuration not stated) , thank you.
inactive

Dear all, I need the recorded test outcome for CC(C)(C)c1cc(CCC(=O)OCCSCCOC(=O)CCc2cc(C(C)(C)C)c(O)c(C(C)(C)C)c2)cc(C(C)(C)C)c1O , thank you.
inactive

Dear all, I need the recorded test outcome for CCC(=O)OC/C=C(\C)CCC=C(C)C , thank you.
inactive

Dear all, I need the recorded test outcome for CC/C=C\CCCCO , thank you.
inactive

Dear all, I need the recorded test outcome for CCCCCC(=O)O[C@]1(C(C)=O)CC[C@H]2[C@@H]3CCC4=CC(=O)CC[C@]4(C)[C@H]3CC[C@@]21C , thank you.
inactive

Dear all, I need the recorded test outcome for [Cl][Dy]([Cl])[Cl] , thank you.
inactive

Dear all, I need the recorded test outcome for CCC(=O)OC(C)(C)C1CC=C(C)CC1 (configuration not stated) , thank you.
inactive

Dear all, I need the recorded test outcome for CC(C)Cc1ccccc1 , thank you.
inactive

Dear all, I need the recorded test outcome for NC(=O)c1c(Cl)cccc1Cl , thank you.
inactive

Dear all, I need the recorded test outcome for CC(C)(C)C1CCC(O)CC1 (configuration not stated) , thank you.
inactive

Dear all, I need the recorded test outcome for CCCCCCCCCO , thank you.
inactive

Dear all, I need the recorded test outcome for Nc1ccc(O)c(N)c1 , thank you.
inactive

Dear all, I need the recorded test outcome for NC(N)=S , thank you.
inactive

Dear all, I need the recorded test outcome for CC(O)CNCC(C)O (configuration not stated) , thank you.
inactive

Dear all, I need the recorded test outcome for CCCCCc1cccc(=O)o1 , thank you.
inactive

Dear all, I need the recorded test outcome for O=[N+]([O-])c1cc(N(CCO)CCO)ccc1NCCO , thank you.
inactive

Dear all, I need the recorded test outcome for COC(=O)c1cccc(C(=O)OC)c1 , thank you.
inactive

Dear all, I need the recorded test outcome for CCCc1ccc(O)cc1 , thank you.
inactive

Dear all, I need the recorded test outcome for CC(C)(O)C(=O)c1ccc(OCCO)cc1 , thank you.
inactive

Dear all, I need the recorded test outcome for C=C1CC/C=C(\C)CC[C@@H]2[C@@H]1CC2(C)C , thank you.
inactive

Dear all, I need the recorded test outcome for CCCCOCCOC(=O)c1ccccc1C(=O)OCCOCCCC , thank you.
inactive

Dear all, I need the recorded test outcome for C[C@]12CC[C@@H]3c4ccc(O)cc4CC[C@H]3[C@@H]1CC[C@@H]2O , thank you.
inactive

Dear all, I need the recorded test outcome for CCCC1CCC(=O)CC1 , thank you.
inactive

Dear all, I need the recorded test outcome for Nc1ccn([C@H]2CC[C@@H](CO)O2)c(=O)n1 , thank you.
inactive

Dear all, I need the recorded test outcome for CCO[Si](CC)(OCC)OCC , thank you.
inactive

----------
Assay: ATG_CMV_CIS: Attagene CIS-FACTORIAL HepG2 Assay for human CMV (Internal Marker) (AID 2282928);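 further: endpoint acts as a background internal control marker rather than a target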
Settings: HepG2 CMV promoter reporter, transcription factor profiling; actives raise or lower the signal
Active and inactive are the calls of the source. Rule for the calls: active = hit-call score of the fitted dose curve at least 0.9, where 1 is the maximum; inactive = score below 0.9.
Return exactly one item of TRUE (active), FALSE (inactive)

Dear all, I need the recorded test outcome for CCCCCCOc1ccc(O)cc1 , thank you.
TRUE

Dear all, I need the recorded test outcome for CCCCCCCOC(C)=O , thank you.
FALSE

Dear all, I need the recorded test outcome for O=S1(=O)CC(Cl)(Cl)C(Cl)(Cl)C1 , thank you.
TRUE

Dear all, I need the recorded test outcome for CC(O)CNCC(C)O (configuration not stated) , thank you.
FALSE

Dear all, I need the recorded test outcome for CC(C)C(=O)OCC=Cc1ccccc1 , thank you.
FALSE

Dear all, I need the recorded test outcome for CC(C)CCOC(=O)CC(C)C , thank you.
FALSE

Dear all, I need the recorded test outcome for CC(C)(C)c1cc(CCC(=O)OCCSCCOC(=O)CCc2cc(C(C)(C)C)c(O)c(C(C)(C)C)c2)cc(C(C)(C)C)c1O , thank you.
FALSE

Dear all, I need the recorded test outcome for CCCCC(CC)COCCO (configuration not stated) , thank you.
FALSE

Dear all, I need the recorded test outcome for CCCCCCCCCCO[C@@H]1O[C@H](CO)[C@@H](O)[C@H](O)[C@H]1O , thank you.
FALSE

Dear all, I need the recorded test outcome for CC/C=C\CCCCO , thank you.
FALSE

Dear all, I need the recorded test outcome for O=C(OCc1ccccc1)c1ccccc1O , thank you.
TRUE

Dear all, I need the recorded test outcome for CC1=CCC(=C(C)C)CC1 , thank you.
FALSE

Dear all, I need the recorded test outcome for NNC(=O)OCc1ccccc1 , thank you.
FALSE

Dear all, I need the recorded test outcome for CCCCN(CCO)CCO , thank you.
FALSE

Dear all, I need the recorded test outcome for CN(C)CCC=C1c2ccccc2CCc2ccccc21 , thank you.
FALSE

Dear all, I need the recorded test outcome for CC1=CC[C@@H](C(C)(C)O)CC1 , thank you.
FALSE

Dear all, I need the recorded test outcome for CCCCCCCCSCc1cc(C)c(O)c(CSCCCCCCCC)c1 , thank you.
FALSE
